Data provenance: PubChem BioAssay (NCATS)

target: Dual specificity protein kinase CLK4 (Homo sapiens) (UniProt Q9HAZ1); experiment: qHTS Assay for Inhibitors of CDC-like Kinase 4 (ADP-Glo Assay) (AID 1771); conditions: recombinant CLK4, ADP-Glo luminescence; series mostly up to 80 µM; note: nearly all actives have a fitted effect of over 70% in size; note: potency is the fitted concentration of half-maximal effect
Sequence (Q9HAZ1 whole entry, looked up): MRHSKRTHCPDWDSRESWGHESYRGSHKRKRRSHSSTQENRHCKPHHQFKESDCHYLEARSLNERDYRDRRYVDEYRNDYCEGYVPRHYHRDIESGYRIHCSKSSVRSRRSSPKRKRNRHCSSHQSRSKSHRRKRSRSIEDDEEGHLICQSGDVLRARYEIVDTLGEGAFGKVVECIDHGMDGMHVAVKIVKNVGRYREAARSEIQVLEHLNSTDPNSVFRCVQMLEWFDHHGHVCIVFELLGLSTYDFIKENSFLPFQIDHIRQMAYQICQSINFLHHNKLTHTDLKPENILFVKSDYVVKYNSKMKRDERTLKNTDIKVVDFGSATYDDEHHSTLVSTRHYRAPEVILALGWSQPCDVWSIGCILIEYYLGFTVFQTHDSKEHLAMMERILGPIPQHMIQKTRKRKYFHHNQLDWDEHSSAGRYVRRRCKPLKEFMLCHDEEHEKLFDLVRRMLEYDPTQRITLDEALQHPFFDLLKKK
Records with an inconclusive call do not appear. The source made the active and inactive calls. Calls come from the whole dose curve; as a rule, active = well fitted inhibition curve with a large enough effect; inconclusive = small, poorly fitted or top-dose-only effect; inactive = flat fitted curve, though single readings scatter.
value-kind: Potency

Please review the following examples before continuing.
structure-smiles	test-target	reported-result
COc1cccc(-c2cncnc2NC2CCNCC2)c1	Dual specificity protein kinase CLK4 (Homo sapiens) (UniProt Q9HAZ1)	inactive
Cc1nc2cnc(N3CCOCC3)nc2n(C2CC2)c1=O	Dual specificity protein kinase CLK4 (Homo sapiens) (UniProt Q9HAZ1)	inactive
CC(=O)NCCNc1ncnc2ccc(-c3cccc(NS(C)(=O)=O)c3)cc12	Dual specificity protein kinase CLK4 (Homo sapiens) (UniProt Q9HAZ1)	12.6 µM (active)
CN(C)c1ncc2nc(-c3cccs3)c(=O)n(C[C@H]3CCCO3)c2n1	Dual specificity protein kinase CLK4 (Homo sapiens) (UniProt Q9HAZ1)	inactive

stdin: Tell me the measured Potency of CN(C)c1ncc2nc(-c3cccc(C#N)c3)c(=O)n(CCC#N)c2n1 , please.
stdout: inactive

stdin: Tell me the measured Potency of Cc1noc(C)c1-c1ccc2ncnc(N(C)C)c2c1 , please.
stdout: 4.47 µM (active)

stdin: Tell me the measured Potency of COc1ncc2nc(-c3ccccc3)c(=O)n(-c3ccccc3)c2n1 , please.
stdout: inactive

stdin: Tell me the measured Potency of COc1ccc(-n2c(=O)c(-c3cccs3)nc3cncnc32)cc1 , please.
stdout: inactive

stdin: Tell me the measured Potency of COCCn1c(=O)c(-c2ccc(F)cc2)nc2cnc(N3CCOCC3)nc21 , please.
stdout: inactive

stdin: Tell me the measured Potency of Cc1noc(C)c1-c1cncnc1NCc1ccccc1 , please.
stdout: inactive

stdin: Tell me the measured Potency of CN1CCN(c2cc(-c3ccoc3)ncn2)CC1 , please.
stdout: inactive

stdin: Tell me the measured Potency of Cc1noc(C)c1-c1cc(NCCN2CCOCC2)ncn1 , please.
stdout: 22.4 µM (active)

stdin: Tell me the measured Potency of O=c1c(-c2cc(F)cc(F)c2)nc2cnc(N3CCOCC3)nc2n1C[C@H]1CCCO1 , please.
stdout: inactive

stdin: Tell me the measured Potency of O=c1c(-c2cc(F)cc(F)c2)nc2cnc(Nc3ccccc3)nc2n1C[C@H]1CCCO1 , please.
stdout: inactive

stdin: Tell me the measured Potency of O=c1c(CCc2ccccc2)nc2cncnc2n1Cc1ccc(F)cc1 , please.
stdout: inactive
